assayedSystem: Progesterone receptor (Homo sapiens)
experiment: qHTS assay to identify small molecule agonists of the progesterone receptor (PR) signaling pathway (AID 1346784); further: nearly all actives have a fitted effect of over 30% in size
runConditions: PR-UAS-bla HEK293T, beta-lactamase FRET ratio, 16 h; series mostly up to 92.4 µM
Results filed as inconclusive are left out. Activity calls are given as the source filed them. The call rests on the fitted dose curve.
readoutLabel: outcome

> print(dat)
                                    compound  readoutlabel  reportedmeasurement
 1                              CC(C)(C)OC=O       outcome             inactive
 2                              Cc1cccc(N)n1       outcome             inactive
 3                           Cc1ccc2ccccc2n1       outcome             inactive
 4  CC(=O)SC[C@@H](C)C(=O)N1CCC[C@H]1C(=O)N[C@@H](Cc1ccccc1)C(=O)O       outcome             inactive
 5                COc1ccc2cc(CCC(C)=O)ccc2c1       outcome             inactive
 6  CC(=O)Nc1ccc(OCCOCCOc2ccc(NC(C)=O)cc2)cc1       outcome             inactive
 7  CCCCC(O)/C=C(C)/C=C/C=C/C(=O)N1CCCC1=O (stereo not drawn)       outcome             inactive
 8         CO/N=C(\C(=O)O)c1csc(NC(=O)CCl)n1       outcome             inactive
 9  Cc1nnc(C(=O)NC(C)(C)c2nc(C(=O)NCc3ccc(F)cc3)c(O)c(=O)n2C)o1       outcome             inactive
10                         Nc1nc(Cl)cc(Cl)n1       outcome             inactive
11              O=C(CCBr)N1CCN(C(=O)CCBr)CC1       outcome             inactive
12                CC(C)(O)c1ccc(C(C)(C)O)cc1       outcome             inactive
13              O=c1[nH]c(=O)c2cn[nH]c2[nH]1       outcome             inactive
14  N#Cc1cc(NC(=O)C(=O)O)c(Cl)c(NC(=O)C(=O)O)c1       outcome             inactive
15                            N#CC1(N)CCCCC1       outcome             inactive
16                        CCCc1ncc(C(=O)O)s1       outcome             inactive
17                     O=C1c2ccccc2C(=O)N1CO       outcome             inactive
18                  Clc1cc(Cl)c(Cl)c(Cl)c1Cl       outcome             inactive
19  CC12CCCC=C1C(=O)OC2=O (stereo not drawn)       outcome             inactive
20                       CCC(=O)OCCOc1ccccc1       outcome             inactive
21                           CC[N+](C)(CC)CC       outcome             inactive
22  CCOC(=O)COc1ccc2c(C)c(CCN(CC)CC)c(=O)oc2c1Cl       outcome             inactive
23                        C[n+]1ccccc1/C=N/O       outcome             inactive
24  N[C@H]1C(O)O[C@H](CO)[C@@H](O)[C@@H]1O (stereo partly drawn)       outcome             inactive
25           CCCCCCC(O)CO (stereo not drawn)       outcome             inactive
26        CC(C)OC(=O)C(C(=O)OC(C)C)=C1SC=CS1       outcome             inactive
27                     CCCCCCCCCCCCCC(=O)OCC       outcome             inactive
28  CC(=O)SCC(CC(=O)c1ccc(C)cc1)C(=O)O (stereo not drawn)       outcome             inactive
29                             Cc1ccc(Br)cc1       outcome             inactive
30                    O=C(O)COc1ccc2ccccc2c1       outcome             inactive
31  Cc1ccc(S(=O)(=O)NC(=O)NN2CC3CCCC3C2)cc1 (stereo not drawn)       outcome             inactive
32                     CC1(C)CC(N)CC(C)(C)N1       outcome             inactive
33               CC(C)C[P+](C)(CC(C)C)CC(C)C       outcome             inactive
34                     O=C(O)CCCCCCCCCC(=O)O       outcome             inactive
35                          CC1=C(O)C(=O)CO1       outcome             inactive
36  NS(=O)(=O)c1cc2c(cc1C(F)(F)F)NCNS2(=O)=O       outcome             inactive
37     CC(=O)Nc1ccc(S(=O)(=O)Nc2cc(C)on2)cc1       outcome             inactive
38         O=P(O)(O)C(O)(Cc1cccnc1)P(=O)(O)O       outcome             inactive
